- target_system: MtDHFR (Mycobacterium tuberculosis)
- Sequence (P9WNX1 whole entry): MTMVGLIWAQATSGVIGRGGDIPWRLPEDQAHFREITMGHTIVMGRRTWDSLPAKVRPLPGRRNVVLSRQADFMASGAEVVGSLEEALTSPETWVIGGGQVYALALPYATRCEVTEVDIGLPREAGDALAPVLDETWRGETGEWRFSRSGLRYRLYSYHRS
measured_endpoint: IC50 (µM)
Write it as a number; the unit µM goes unstated.

{"columns": ["smiles_string", "IC50 [µM]"],
 "data": [
  ["COc1ccc(C=NNC(=O)COC(=O)c2ccc(-n3cccc3)cc2)cc1", 69]
]}

Request the reported IC50 associated with `CC(=NNC(=O)COC(=O)c1ccc(-n2cccc2)cc1)c1cccc(Br)c1`
153

Recorded IC50 for `COc1cccc(C(C)=NNC(=O)COC(=O)c2ccc(-n3cccc3)cc2)c1` , please?
124

Reported IC50 for `Cc1cc(=O)n(C(=O)COC(=O)c2ccc(-n3cccc3)cc2)[nH]c1=O` : what is it?
35
